# Species: Rattus norvegicus
# experiment: DrugMatrix - Regimen: Daily Repeat
# Format: toxicity, organism-based, Sprague-Dawley
# Parameters: regimen Daily Repeat, gender Male, age 6-8 weeks
# measurement parameters: in vivo, sc, 2 mg/kg, […], tissue Blood, route mini-PUMP - SUBCUTANEOUS, dose level High, time 14 day, vehicle 100 % SALINE
measurement name: ABSOLUTE MONOCYTE (cells/µL)
Numbers only, in cells/µL.

Summary for this compound, CC(C)NCC(O)c1ccc(O)c(O)c1 (stereo unspecified) : ABSOLUTE MONOCYTE is 300

---

# Species: Rattus norvegicus
# experiment: DrugMatrix - Regimen: Daily Repeat
# Type: toxicity, organism-based, Sprague-Dawley
# Design: regimen Daily Repeat, gender Male, age 6-8 weeks
# measurement parameters: in vivo, sc, 0 mg/kg, 120 h, tissue Plasma, route subcutaneous, dose level Control, time 5 day, […]
measurement name: CHLORIDE

Take each entry in turn and give its CHLORIDE.
1. CCN(CC)CCOCCC1=CCC2CC1C2(C)C (stereo not given)
2. CCC(=O)O[C@]1(C(=O)CCl)[C@@H](C)C[C@H]2[C@@H]3CCC4=CC(=O)C=C[C@]4(C)[C@@]3(F)[C@@H](O)C[C@@]21C [CLOBETASOL PROPIONATE]

Ans:
["99.83 MEQ/L", "105.17 MEQ/L"]
